Readings of GI50 for the listed compounds
- System: SNB-19
- measurement-protocol: NCI tumour cell line growth inhibition, 48 h
Activity calls are given as the source filed them. Rule as the data show it: active = GI50 up to about 1.1 µM and inactive = higher.
assay-metric: GI50

INSERT INTO results (compound, tested_on, result) VALUES
  ('C/C=C1/CN2CCC34c5ccccc5N5C(=O)C(C6CC78c9ccccc9N9C(=O)C=CC(C%10CC7N6C/C%10=C/C)C98)=CC(C1CC23)C54 (stereo not given)', 'SNB-19', '7.87 µM (inactive)'),
  ('Cc1ccccc1C1OC(=O)c2ccc3ccccc3c21 (stereo not given)', 'SNB-19', '8.87 µM (inactive)'),
  ('c1ccc(CSc2nc3ccccc3nc2-c2cccs2)cc1', 'SNB-19', '> 100 µM (inactive)'),
  ('CCOC(=O)NC1CC2CCC1(OC)C=C2C (stereo not given)', 'SNB-19', '> 100 µM (inactive)'),
  ('CCOC(=O)OC1C(Br)C2CCC1(C)C2(C)C (stereo not given)', 'SNB-19', '14.6 µM (inactive)'),
  ('COc1ccc(N2C(=O)[C@@H]3[C@@H]4CC(C)CC[C@@H]4c4c([nH]c5ccccc45)[C@@H]3C2=O)cc1 (stereo not given in full)', 'SNB-19', '8.24 µM (inactive)'),
  ('C=C1c2nc3ccccc3n2C=C(c2ccc(OC)cc2)N1c1ccc(OCCN2CCCCC2)cc1', 'SNB-19', '11.3 µM (inactive)'),
  ('c1csc(C(NC2=NCCO2)C2CC2)c1 (stereo not given)', 'SNB-19', '> 100 µM (inactive)'),
  ('CCOC(=O)C(Cc1c(C=O)[nH]c2ccccc12)(NC(=O)c1ccccc1)C(=O)OCC', 'SNB-19', '4.93 µM (inactive)'),
  ('CC(C)=CCCC(C)[C@H]1CC(O)C2(C)C3=CCC4C(C)(C)[C@@H](O)CC[C@]4(C)C3=CC[C@]12C (stereo not given in full)', 'SNB-19', '12.1 µM (inactive)');

###

- Test system: HL-60
- measurement-protocol: NCI tumour cell line growth inhibition, 48 h
Activity calls are given as the source filed them. Cut-off read from the data, not from the text of the source: active = GI50 up to about 1.1 µM and inactive = higher. Peptide text beside a SMILES is read from it. * marks the point of attachment. Trt = c1ccc(C(c2ccccc2)(c2ccccc2)*)cc1; Cbz = O=C(OCc1ccccc1)*
Outcome codes: active, inactive

INSERT INTO assay_data (compound, discrete_label) VALUES
  ('Nc1ncnc2c1ccn2COC(CO)CO', 'inactive'),
  ('COC(=O)Cc1nc2ccccc2o1', 'inactive'),
  ('CC(=O)OCC1OC(n2cc([N+](=O)[O-])c(=O)[nH]c2=O)C(OC(C)=O)C(OC(C)=O)C1OC(C)=O (configuration not stated)', 'inactive'),
  ('Cc1c[nH]c2c(O)cc3c(c12)[C@H](CCl)CN3C(=O)c1cc2cc(NC(=O)Nc3ccc4[nH]c(C(=O)N5C[C@@H](CCl)c6c5cc(O)c5[nH]cc(C)c65)cc4c3)ccc2[nH]1 [BIZELESIN]', 'active'),
  ('COC(=O)C1Cc2c(OC)ccc(OC)c2C(O)C1C(=O)OC (configuration not stated)', 'inactive'),
  ('CC1=C2O[B-](c3ccccc3)(c3ccccc3)[O+]=C2C=CN1', 'inactive'),
  ('CCCCCCCCCCCCCCCCCCNc1ccn(C2OC(COP(=O)(O)OCCCCCCCCCCCCCCCC)C(O)C2O)c(=O)n1 (configuration not stated)', 'inactive'),
  ('Cn1c(=O)c2c(nc3n2CCCC(=O)N3CCCCl)n(C)c1=O', 'inactive'),
  ('CC(=O)OCC1OC(On2ccccc2=S)C(OC(C)=O)C(OC(C)=O)C1OC(C)=O (configuration not stated)', 'inactive'),
  ('CS/C(c1ccccc1)=[N+](/C)[O-]', 'inactive'),
  ('CN(C)CCn1c(=O)c2ccc3c4c(nn3CCN(C)C)c3cc(N)ccc3n(c1=O)c24', 'active'),
  ('COC(=O)C(CO)NC(=O)C(CSC(c1ccccc1)(c1ccccc1)c1ccccc1)NC(=O)OCc1ccccc1 (configuration not stated) (Cbz-Cys(Trt)-Ser-OMe; configuration not given here)', 'inactive'),
  ('CN(C)c1cccc2c1C(=O)C=CC21c2ccc(N(C)C)c3c(N(C)C)ccc(c23)C(c2ccccc2)C1c1ccccc1 (configuration not stated)', 'inactive'),
  ('CCCCN1C(=O)CS/C1=N/Nc1nc2c([nH]1)c(=O)n(C)c(=O)n2C', 'inactive'),
  ('CC(=O)c1cnc2oc3ccc(O)cc3c2c1-c1ccccc1', 'inactive'),
  ('CN(C)c1nc(N(C)C)nc(N(C)CN(C)c2ccc(Cl)cc2)n1', 'inactive'),
  ('COC1(OC)CC(CO)(CNc2cc(Cl)nc(N)n2)C1', 'inactive'),
  ('C[C@]12CC[C@H]3[C@@H](CC[C@]4(O)C[C@@H](O)CC[C@]34/C=N/O)[C@@]1(O)CC[C@@H]2C1=COC(=O)C1', 'active'),
  ('Cc1ccccc1NC(=O)c1cc(-c2ccc([N+](=O)[O-])cc2)nc(S)n1', 'inactive'),
  ('O=C(NC(N1CCN(c2cc3c(cc2F)c(=O)c(C(=O)O)cn3C2CC2)CC1)(C(F)(F)F)C(F)(F)F)c1ccccc1', 'inactive'),
  ('COc1cc([C@@H]2c3cc4c(cc3[C@@H](NC(=O)c3ccc(C(C)=O)cc3)C3COC(=O)[C@@H]32)OCO4)cc(OC)c1O (some centres not stated)', 'active'),
  ('COC(=O)C1=C(C)NC(C)=C(C(=O)OC)C1c1cccc(/[N+]([O-])=C/c2ccccc2)c1', 'inactive'),
  ('CC(C)C[P+](c1ccccc1)(c1ccccc1)c1ccccc1', 'inactive'),
  ('N#C/C(=C\c1ccc([N+](=O)[O-])o1)c1n[nH]c(Cc2ccccc2)n1', 'inactive'),
  ('CCOC(=O)N(C)C(=C(F)F)C(F)(F)F', 'inactive'),
  ('Oc1nc2cc(Cl)ccc2nc1/C(=N\Nc1ccccc1)C(O)c1ccc2c(c1)OCO2 (configuration not stated)', 'inactive'),
  ('O=C(OCC1CCCN2CCCCC12)c1cccnc1 (configuration not stated)', 'inactive'),
  ('CCOC(=O)C(Cc1c(C=O)[nH]c2ccccc12)(NC(=O)c1ccccc1)C(=O)OCC', 'inactive'),
  ('CC(=O)Nc1cc(Nc2cc(O)nc(O)n2)ccc1C', 'inactive'),
  ('CC1(C)CCC2(C(=O)OC3OC(CO)C(O)C(O)C3O)CCC3(CO)C(=CCC4C5(C)CC(O)C(O)C(C)(C(=O)OC6OC(CO)C(O)C(O)C6O)C5CCC43C)C2C1 (configuration not stated)', 'inactive'),
  ('COC(=O)C1=Cc2cc3c(cc2[C@H](c2ccc4c(c2)OCO4)C1C(=O)OC)OCO3 (some centres not stated)', 'inactive'),
  ('CSC1=NS(=O)(=O)c2cc(C(=O)NN(C)C(=O)c3cc4c(cc3Cl)SC(SC)=NS4(=O)=O)c(Cl)cc2S1', 'inactive'),
  ('CCN1CC2=C(NC(=S)NC2c2cc(OC)c(OC)c(OC)c2)/C(=C/c2cc(OC)c(OC)c(OC)c2)C1 (configuration not stated)', 'inactive'),
  ('COC(=O)CC1CN(C(=O)OCc2ccccc2)C(C)(C)O1 (configuration not stated)', 'inactive'),
  ('CC(CC(=O)N1C2CC3CCC2(CS1(=O)=O)C3(C)C)[Si](C)(C)C (configuration not stated)', 'inactive'),
  ('N#Cc1c(O)c(/C=N/c2ccc(Cl)cc2)c(=O)n2c1[nH]c1ccccc12', 'inactive'),
  ('COc1cccc(/C=N/NC(=O)CN(C)C)c1O', 'inactive');
